Target: human EP2 (PTGER2) (Homo sapiens, UniProt P43116)
Construct: Cayman Chemical (Human EP2 Reporter Assay Kit)
Sequence (P43116 whole entry): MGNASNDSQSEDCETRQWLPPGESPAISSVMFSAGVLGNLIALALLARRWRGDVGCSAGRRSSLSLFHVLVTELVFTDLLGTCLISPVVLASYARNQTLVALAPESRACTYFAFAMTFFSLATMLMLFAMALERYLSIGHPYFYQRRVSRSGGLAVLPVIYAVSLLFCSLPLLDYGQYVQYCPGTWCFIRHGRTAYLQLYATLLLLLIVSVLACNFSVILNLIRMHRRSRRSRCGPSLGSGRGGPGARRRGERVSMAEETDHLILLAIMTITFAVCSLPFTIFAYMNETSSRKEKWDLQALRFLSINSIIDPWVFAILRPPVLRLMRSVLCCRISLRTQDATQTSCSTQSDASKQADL
Assay: EP2 antagonist assay (HEK-293 CNG membrane potential cAMP assay / 293T SEAP reporter assay, PGE2-stimulated)
Conditions: EP2 antagonist activity; concentration for 50% inhibition of signal compared to DMSO
readout_name: IC50

C[C@H](NC(=O)c1cc(-c2ccccc2)cc2cnn(Cc3ccc(-c4ccc(F)cc4)cc3)c12)c1ccc(C(=O)O)cc1 ... < 0.1 µM

Reported IC50, compound "O=C(O)c1ccc(CNC(=O)c2cc(-c3ccc(F)c(F)c3)cc3cnn(Cc4ccc(-c5ccccc5)cc4)c23)cc1" : ____
< 0.1 µM

Reported IC50, compound "C[C@@H](NC(=O)c1ccc(-c2cc(F)cc(C(F)(F)F)c2)c2ccn(Cc3ccc(C(F)(F)F)cc3)c12)c1ccc(C(=O)O)cc1" : ____
≥ 1 µM
